B1: OR4K15 (parent)
chain: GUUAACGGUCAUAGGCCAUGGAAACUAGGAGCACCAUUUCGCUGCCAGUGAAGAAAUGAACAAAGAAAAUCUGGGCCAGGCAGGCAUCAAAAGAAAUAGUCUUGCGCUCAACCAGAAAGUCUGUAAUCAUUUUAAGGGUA

Variants of: B1
Experiment: self-cleavage, relative activity (ratio to wild type); higher = more cleavage; in vitro, sequencing; the parent is a self-cleaving ribozyme
Please note: yes applies when self-cleavage is 1 or greater, and no applies otherwise.

U72G A95G: no
U87G A125G: no
U19C A60G: yes

Could you please find out whether A33C U122A has self-cleavage that meets 1 or exceeds it?
yes

Determine whether this variant has self-cleavage no lower than 1: `C85U`
yes

Please check the record A27G A129U and state if its self-cleavage is at or above 1.
no

In plain terms: is recorded self-cleavage at least 1 for C34U A110G ?
no

Is reported self-cleavage greater than or equal to 1 here: A51G G106A
no
